B1: VH:VL chains; a variant is named by its letters at X, in order (parent)
chain 1: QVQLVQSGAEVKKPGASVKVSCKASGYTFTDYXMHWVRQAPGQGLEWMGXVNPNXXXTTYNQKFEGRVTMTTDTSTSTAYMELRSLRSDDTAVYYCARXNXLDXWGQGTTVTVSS
chain 2: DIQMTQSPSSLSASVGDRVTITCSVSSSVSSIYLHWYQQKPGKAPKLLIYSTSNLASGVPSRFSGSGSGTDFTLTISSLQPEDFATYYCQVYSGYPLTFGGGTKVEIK

# Variants of: B1
# Assay notes: yeast display scFab, FACS + sequencing
# Test settings: with MET
Some of the results follow. The true hit rate is not given.
Reported property: antigen binding call

• YRRGGSGA = binds
• VKGKGSAA = binds
• YRKGDAGD = binds

Origin of measurements: the emibetuzumab library of Makowski et al. (2022)
